Test system: rats subjected to adrenalectomy (granuloma around implanted cotton wads)
TEST METHOD NOTES: granulom test (cotton-pellet test) on rats subjected to adrenalectomy: granuloma growth, thymus weight, body weight increase
Assay type: in vivo, rat (Sprague-Dawley)
SETTINGS: rat, in vivo
ASSAY ENDPOINT: ED25 body weight increase inhibition (µg/animal)
One number for each entry, in µg/animal.

>>> recorded_number("CCCC1O[C@@H]2C[C@H]3[C@@H]4CCC5=CC(=O)C=C[C@]5(C)[C@H]4[C@@H](O)C[C@]3(C)[C@]2(C(=O)COC(C)=O)O1 (single isomer, unassigned) [27 B]")
35

State the recorded ED25 body weight increase inhibition for every item in the following list.
1. CCCC1O[C@@H]2C[C@H]3[C@@H]4C[C@H](F)C5=CC(=O)C=C[C@]5(C)[C@@]4(F)[C@@H](O)C[C@]3(C)[C@]2(C(=O)COC(=O)c2cc3ccccc3o2)O1 (single isomer, unassigned) [25 A]
2. CCCC1O[C@@H]2C[C@H]3[C@@H]4C[C@H](F)C5=CC(=O)C=C[C@]5(C)[C@@]4(F)[C@@H](O)C[C@]3(C)[C@]2(C(=O)COC(=O)c2cc3ccccc3o2)O1 (single isomer, unassigned) [25 B]

Result:
[20, 20]

Provenance of the data: patent US3996359A
